assay: NCI Yeast Anticancer Drug Screen. Data for the rad14 strain (AID 159);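 further: 0% = growth of vehicle-treated control cultures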; conditions: S. cerevisiae rad14 strain growth inhibition; at 3.7 µM; stronger effect = higher value
This is part of a sample that, as a whole, favours compounds with a hit. Of some 79,000 tested, about 15% had one in any assay.
Quantity: growth inhibition (%)
Note: unit % is implicit; provide only the numeric part.

Cc1cccc2c1N=C(C(F)(F)F)CC2=O = -5

Incoming: Specify growth inhibition for NC(N)=N/N=C/c1cc(Cl)cc(Cl)c1O and stop.
Outgoing: 1

====

experiment: NCI Yeast Anticancer Drug Screen. Data for the rad52 strain (AID 147);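 further: 0% = growth of vehicle-treated control cultures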; details: S. cerevisiae rad52 mutant growth inhibition; at 3.7 µM; stronger effect = higher value
About 79,000 compounds went through this panel and 15% of them were active in at least one assay; those are over-represented in the sample as a whole.
Quantity: growth inhibition (%)
Note: unit % is implicit; provide only the numeric part.

O=C(O)c1cccc2cccc(-c3c4ccc(=O)cc-4oc4cc(O)ccc34)c12 = 33
O=C1C=CC(=Nc2ccccc2)c2ccccc21 = 5
Cc1ccccc1NC(=O)Cc1csc(N/N=C2\NC(=O)/C(=C/c3cccc([N+](=O)[O-])c3)S2)n1 = 5

Incoming: Specify growth inhibition for N#CSC1CCCCNC1=O (centres undefined) and stop.
Outgoing: 10

====

Test: NCI Yeast Anticancer Drug Screen. Data for the rad18 strain (AID 177)
Conditions: S. cerevisiae rad18 mutant growth inhibition; at 1.2 µM
Procedure: Growth inhibition of yeast strains with defined genetic alterations is measured as a screen for potential anti-cancer activity. Selected strains with alterations in DNA damage repair or cell cycle control were exposed to compounds and growth inhibition was measured relative to vehicle treated controls. The strain used in this assay is rad18
This is part of a sample that, as a whole, favours compounds with a hit. Of some 79,000 tested, about 15% had one in any assay. Active and inactive are the calls of the source. No stated cut-off is given here; in the data, active means growth inhibition above about 70%; inactive means the rest.
Form entry, call: pick from class 1 for active, class 0 for inactive

Sample answers from the record:
COc1cc([C@@H]2c3cc4c(cc3[C@@H](OC3OC5COC(C)OC5C(O)C3O)[C@H]3COC(=O)[C@H]23)OCO4)cc(OC)c1O (stereo partly drawn) = class 0
Cc1cccc(/C=N/NC(=S)N(C)CCc2ccccn2)n1 = class 1
C(=N/NC1=NCCN1)/c1c2ccccc2c(/C=N\NC2=NCCN2)c2ccccc12 = class 0
O=C(O)c1ccccc1.[Ag] = class 1
Nc1nc(N)c2cc(Sc3ccc4ccccc4c3)ccc2n1 = class 0
CCC(=O)N(c1ccccc1)C(C)CN1CCC(O)(c2cccc(C(F)(F)F)c2)CC1 (stereo not drawn) = class 0
Cc1ccc(S(=O)(=O)N(C)c2ccc(Cl)cc2C2=NCCc3ccccc32)cc1 = class 0
O=C(/C=C/c1cccc(Br)c1)c1ccc(Cl)cc1 = class 0

Please examine the following record next.
Incoming: So what was the verdict on COc1ccc(S(=O)(=O)N/N=C\c2cc([N+](=O)[O-])cc(I)c2O)c(OC)c1OC in this test?
Outgoing: class 0

====

experiment: NCI Yeast Anticancer Drug Screen. Data for the rad50EPP+ strain (AID 151);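 further: 0% = growth of vehicle-treated control cultures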; settings: S. cerevisiae rad50 mutant strain, at 33.0 µM, stronger effect = higher value
About 79,000 compounds went through this panel and 15% of them were active in at least one assay; those are over-represented in the sample as a whole.
# binarize growth inhibition: threshold 40% inclusive, high side true, low side false

Sample answers from the record:
CCCCCCCCN1C(=O)c2ccccc2C1=O = false
CC(=O)[C@]1(O)Cc2c(O)c3c(c(O)c2[C@@H](OC2CC(N)C(O)C(C)O2)C1)C(=O)c1c(OCc2ccccc2)cccc1C3=O (some centres undefined) = true
Cc1ccc(I)cc1N=C=S = true
CN(N=O)c1ccc(/C=C/c2ccnc3ccccc23)cc1 = true
c1ccc2c(c1)ccc1c3ccncc3ccc21 = true
Cc1cc(C)c(N2C(=O)CC(Sc3ccccc3N)C2=O)c(C)c1 (centres undefined) = false

Incoming: Reported growth inhibition at or above 40%? COc1ccc(N=Nc2ccc3oc(=O)c(C(=O)Nc4ccccc4)cc3c2)cc1
Outgoing: true

Incoming: Reported growth inhibition at or above 40%? Nc1ccc2c(c1)sc1ccccc12
Outgoing: true

Incoming: Reported growth inhibition at or above 40%? O=C(CNS(=O)(=O)Cc1ccccc1)NNc1ccccc1
Outgoing: true

Incoming: Reported growth inhibition at or above 40%? O=C1c2cccc3cc([N+](=O)[O-])cc(c23)C(=O)N1CCN1CCCC1
Outgoing: true

Incoming: Reported growth inhibition at or above 40%? CC1CCC2(C(=O)O)CCC3(C)C(=CCC4C5(C)CC(O)C(O)C(C)(CO)C5C(O)CC43C)C2C1C (centres undefined)
Outgoing: false

Incoming: Reported growth inhibition at or above 40%? S=c1nc(Cl)cc2[nH]c(Cl)cn12
Outgoing: true

Incoming: Reported growth inhibition at or above 40%? O=[N+]([O-])c1cc(S(=O)(=O)Nc2ccccc2)ccc1Cl
Outgoing: false

Incoming: Reported growth inhibition at or above 40%? O=C(/C=C/c1cccc(Br)c1)c1ccc(Cl)cc1
Outgoing: false

Incoming: Reported growth inhibition at or above 40%? CC(=O)C1(O)Cc2c(O)c3c(c(O)c2C(OC2CC(N)C(O)C(C)O2)C1)C(=O)c1ccccc1C3=O (centres undefined)
Outgoing: true

Incoming: Reported growth inhibition at or above 40%? COc1cc([C@@H]2c3cc4c(cc3[C@@H](OC3OC5COC(C)OC5C(O)C3O)[C@H]3COC(=O)[C@H]23)OCO4)cc(OC)c1O (some centres undefined)
Outgoing: false
